- Tested on: HMLE_sh_eGFP viability, CellTiter-Glo luminescence, 72 h
- Assay comment: viability loss of control HMLE line – cell-based, HMLE_sh_eGFP, luminescence, powder samples, set 4, counter-screen for breast cancer stem cell project, dose response (AID 504450)
Records with an inconclusive call do not appear.

{"columns": ["Molecule", "AC50"],
 "data": [
  ["CC[C@@H](C(=O)O)C1CC[C@H](C)C([C@@H](C)[C@H](O)[C@H](C)C(=O)[C@H](CC)C2O[C@]3(C=C[C@@H](O)[C@]4(CC[C@@](C)(C5CC[C@](O)(CC)[C@H](C)O5)O4)O3)[C@H](C)C[C@@H]2C)O1 (some centres undefined)", "0.007 µM"],
  ["Cc1csc(NC(=O)c2ccc(COc3ccccc3Cl)o2)n1", "0.163 µM"],
  ["O=C(Nc1nc2cccc(Cl)c2s1)c1ccc(COc2ccccc2)o1", "9.36 µM"],
  ["Cc1csc(NC(=O)c2ccc(COc3cccc(Cl)c3)o2)n1", "6.6 µM"]
]}

====

Measured AC50 of individual entries
- Test system: HMLE_sh_eGFP viability, CellTiter-Glo luminescence, 72 h
- Assay comment: viability loss of control HMLE line – cell-based, HMLE_sh_eGFP, luminescence, powder samples, set 4, counter-screen for breast cancer stem cell project, dose response (AID 504450)
Results filed as inconclusive are left out.
Property measured: AC50

{"columns": ["Compound smiles", "Assay target", "Property measured", "Measured"],
 "data": [
  ["O=C(Nc1ccccn1)c1ccc(COc2ccccc2)o1", "HMLE_sh_eGFP viability, CellTiter-Glo luminescence, 72 h", "AC50", "29.7 µM"],
  ["Cc1csc(NC(=O)c2ccc(COc3cccc(C(F)(F)F)c3)o2)n1", "HMLE_sh_eGFP viability, CellTiter-Glo luminescence, 72 h", "AC50", "23.5 µM"],
  ["Cc1csc(NC(=O)c2ccc(COc3ccc(F)cc3)o2)n1", "HMLE_sh_eGFP viability, CellTiter-Glo luminescence, 72 h", "AC50", "28.5 µM"],
  ["Cc1csc(NC(=O)c2ccc(COc3cccc(OC(F)(F)F)c3)o2)n1", "HMLE_sh_eGFP viability, CellTiter-Glo luminescence, 72 h", "AC50", "4.4 µM"],
  ["CC(C)c1ccc(/C=C/C(=O)NCc2ccccc2)cc1", "HMLE_sh_eGFP viability, CellTiter-Glo luminescence, 72 h", "AC50", "13.2 µM"],
  ["Cc1csc(NC(=O)c2ccc(COc3cccc(F)c3)o2)n1", "HMLE_sh_eGFP viability, CellTiter-Glo luminescence, 72 h", "AC50", "21.5 µM"],
  ["Cc1csc(NC(=O)c2ccc(COc3ccc(OC(F)(F)F)cc3)o2)n1", "HMLE_sh_eGFP viability, CellTiter-Glo luminescence, 72 h", "AC50", "13.2 µM"],
  ["CC(C)(C)c1ccc(/C=C/C(=O)NC2=NCCS2)cc1", "HMLE_sh_eGFP viability, CellTiter-Glo luminescence, 72 h", "AC50", "20.6 µM"],
  ["Cc1csc(NC(=O)c2ccc(COc3ccccc3C(F)(F)F)o2)n1", "HMLE_sh_eGFP viability, CellTiter-Glo luminescence, 72 h", "AC50", "0.057 µM"],
  ["COc1ccccc1OCc1ccc(C(=O)Nc2nc(C)cs2)o1", "HMLE_sh_eGFP viability, CellTiter-Glo luminescence, 72 h", "AC50", "8.54 µM"],
  ["CC(C)c1ccc(/C=C/C(=O)Nc2ccccn2)cc1", "HMLE_sh_eGFP viability, CellTiter-Glo luminescence, 72 h", "AC50", "14.8 µM"]
]}

====

- System: HMLE_sh_eGFP viability, CellTiter-Glo luminescence, 72 h
- Assay comment: viability loss of control HMLE line – cell-based, HMLE_sh_eGFP, luminescence, powder samples, set 4, counter-screen for breast cancer stem cell project, dose response (AID 504450)
Inconclusive results are not listed.
Measured AC50 of individual entries
Property measured: AC50

{"columns": ["Compound", "Assay target", "Measured"],
 "data": [
  ["Cc1csc(NC(=O)c2ccc(COc3ccc(Cl)cc3)o2)n1", "HMLE_sh_eGFP viability, CellTiter-Glo luminescence, 72 h", "13 µM"],
  ["Cc1csc(NC(=O)c2ccc(COc3ccccc3OC(F)(F)F)o2)n1", "HMLE_sh_eGFP viability, CellTiter-Glo luminescence, 72 h", "0.38 µM"],
  ["COc1cccc(OCc2ccc(C(=O)Nc3nc(C)cs3)o2)c1", "HMLE_sh_eGFP viability, CellTiter-Glo luminescence, 72 h", "1.59 µM"],
  ["O=C(COc1ccc2c(c1)OCO2)N/N=C/c1ccc[nH]1", "HMLE_sh_eGFP viability, CellTiter-Glo luminescence, 72 h", "20.9 µM"],
  ["Cc1csc(NC(=O)c2ccc(COc3ccccc3F)o2)n1", "HMLE_sh_eGFP viability, CellTiter-Glo luminescence, 72 h", "0.151 µM"],
  ["CC(C)c1ccc(/C=C/C(=O)N(C)Cc2ccccc2)cc1", "HMLE_sh_eGFP viability, CellTiter-Glo luminescence, 72 h", "9.01 µM"],
  ["CC(C)(C)c1ccc(C2CC2C(=O)N/N=C/c2ccc[nH]2)cc1 (centres undefined)", "HMLE_sh_eGFP viability, CellTiter-Glo luminescence, 72 h", "2.14 µM"],
  ["Cc1csc(NC(=O)c2ccc(COc3ccc(C(F)(F)F)cc3)o2)n1", "HMLE_sh_eGFP viability, CellTiter-Glo luminescence, 72 h", "2.92 µM"],
  ["CC(C)c1ccc(/C=C/C(=O)Nc2nccn2C)cc1", "HMLE_sh_eGFP viability, CellTiter-Glo luminescence, 72 h", "5.97 µM"],
  ["CC(C)c1ccc(/C=C/C(=O)Nc2nccs2)cc1", "HMLE_sh_eGFP viability, CellTiter-Glo luminescence, 72 h", "7.26 µM"],
  ["Cc1csc(NC(=O)c2ccc(COc3cccc(C#N)c3)o2)n1", "HMLE_sh_eGFP viability, CellTiter-Glo luminescence, 72 h", "15.4 µM"],
  ["O=C(COc1ccc(Cl)cc1Br)N/N=C/c1ccc[nH]1", "HMLE_sh_eGFP viability, CellTiter-Glo luminescence, 72 h", "20.9 µM"],
  ["CC(C)c1ccc(/C=C/C(=O)Nc2nncs2)cc1", "HMLE_sh_eGFP viability, CellTiter-Glo luminescence, 72 h", "9.97 µM"],
  ["O=C(N/N=C/c1ccc[nH]1)C1COc2cc3ccccc3cc2O1 (centres undefined)", "HMLE_sh_eGFP viability, CellTiter-Glo luminescence, 72 h", "18.9 µM"],
  ["O=C(CSc1cc(Cl)ccc1Cl)N/N=C/c1ccc[nH]1", "HMLE_sh_eGFP viability, CellTiter-Glo luminescence, 72 h", "18 µM"],
  ["Cc1csc(NC(=O)c2ccc(COc3ccc(C#N)cc3)o2)n1", "HMLE_sh_eGFP viability, CellTiter-Glo luminescence, 72 h", "12.7 µM"],
  ["O=C(COc1ccc2ccccc2c1Br)N/N=C/c1ccc[nH]1", "HMLE_sh_eGFP viability, CellTiter-Glo luminescence, 72 h", "3.03 µM"],
  ["O=C(/C=C/c1cccc(Cl)c1)NC1=NCCS1", "HMLE_sh_eGFP viability, CellTiter-Glo luminescence, 72 h", "21.5 µM"],
  ["Cc1csc(NC(=O)c2ccc(COc3ccccc3C#N)o2)n1", "HMLE_sh_eGFP viability, CellTiter-Glo luminescence, 72 h", "3.69 µM"]
]}
